Assay: Human HepG2 cell viability assay in 384 well format
Format: toxicity, cell-based
Set-up: dose 125 nL, time 70.5 hour; concentration not given beside the values
Conditions: HepG2 cells, read-out: Inhibition
Reported cytotoxicity at 70.5 h values for a set of molecules
MEASURE NAME: cytotoxicity at 70.5 h (%)

{"MOLECULE": "COc1ccc(-c2cc(C(=O)NCCCn3ccnc3C)n(C)n2)cc1", "MEASUREMENT UNITS": "%", "OBSERVED MEASUREMENT": -4.65}
{"MOLECULE": "Cc1cnc(NC(=O)C(C)Oc2ccc3c(c2)OCO3)s1 (stereo not drawn)", "MEASUREMENT UNITS": "%", "OBSERVED MEASUREMENT": -7.91}
{"MOLECULE": "Cc1ncc(CNC(=O)NCc2c(F)cccc2OC(F)F)s1", "MEASUREMENT UNITS": "%", "OBSERVED MEASUREMENT": -0.321}
{"MOLECULE": "CN(Cc1nnc(C2CC2)o1)CC1CCCN1c1cccnn1 (stereo not drawn)", "MEASUREMENT UNITS": "%", "OBSERVED MEASUREMENT": -9.18}
{"MOLECULE": "Cc1noc([C@@]23CCO[C@@H]2CCN(C(=O)c2c(C)noc2C)C3)n1", "MEASUREMENT UNITS": "%", "OBSERVED MEASUREMENT": -1.33}
{"MOLECULE": "O=C(NC1CC(=O)N(C2Cc3ccccc3C2)C1)c1cc[n+]([O-])cc1 (stereo not drawn)", "MEASUREMENT UNITS": "%", "OBSERVED MEASUREMENT": 9.2}
{"MOLECULE": "CC(C)NC(=O)Nc1ccc(CNCc2ccc(OC(F)F)cc2)cc1", "MEASUREMENT UNITS": "%", "OBSERVED MEASUREMENT": 13.8}
{"MOLECULE": "O=C(Cn1nnn(-c2cccs2)c1=O)N(CC1CCOC1)C1CC1 (stereo not drawn)", "MEASUREMENT UNITS": "%", "OBSERVED MEASUREMENT": -9.03}
{"MOLECULE": "Cc1cnn(CC2CCCN2Cc2nnc(C)o2)c1 (stereo not drawn)", "MEASUREMENT UNITS": "%", "OBSERVED MEASUREMENT": -2.26}
{"MOLECULE": "O=C(Cn1cc(-c2ccccc2)cn1)NC(C1CC1)C1CC1", "MEASUREMENT UNITS": "%", "OBSERVED MEASUREMENT": -5.32}
{"MOLECULE": "O=C(O)CCc1cccc(C2CCCN2Cc2cccc(Cl)c2)n1 (stereo not drawn)", "MEASUREMENT UNITS": "%", "OBSERVED MEASUREMENT": -0.284}
{"MOLECULE": "CN(CC(O)C1CC1)C(=O)Nc1ccc(F)c(-n2cccc2)c1 (stereo not drawn)", "MEASUREMENT UNITS": "%", "OBSERVED MEASUREMENT": -2.43}
{"MOLECULE": "CNC(=O)c1cccnc1NCc1ccc(-n2cccn2)cc1", "MEASUREMENT UNITS": "%", "OBSERVED MEASUREMENT": 4}
{"MOLECULE": "CO[C@@H]1CCN(c2ncc(F)cn2)[C@H]1Cc1cnn(C)c1", "MEASUREMENT UNITS": "%", "OBSERVED MEASUREMENT": -11.6}
{"MOLECULE": "CCNC(=O)C1CCCN(Cn2nc(C(C)(C)C)ccc2=O)C1 (stereo not drawn)", "MEASUREMENT UNITS": "%", "OBSERVED MEASUREMENT": 21.4}
{"MOLECULE": "CCCN(C)CC1CCN(c2ncc(Br)cn2)C1 (stereo not drawn)", "MEASUREMENT UNITS": "%", "OBSERVED MEASUREMENT": 2.13}
{"MOLECULE": "Cc1cnn(CC2CN(Cc3csc(C4CCCC4)n3)CCO2)c1 (stereo not drawn)", "MEASUREMENT UNITS": "%", "OBSERVED MEASUREMENT": -0.185}
{"MOLECULE": "COCCNC(=O)Nc1ccn(-c2cccc(C(F)(F)F)c2)n1", "MEASUREMENT UNITS": "%", "OBSERVED MEASUREMENT": 9.44}
{"MOLECULE": "CN(C)CCNC(=O)c1ccc2c(-c3nccs3)noc2c1", "MEASUREMENT UNITS": "%", "OBSERVED MEASUREMENT": -8.08}
{"MOLECULE": "CC1CN(C(=O)c2ccnc(-n3cncn3)c2)c2ccccc2S1 (stereo not drawn)", "MEASUREMENT UNITS": "%", "OBSERVED MEASUREMENT": -0.177}
{"MOLECULE": "COC(=O)C(C)(C)NC(=O)c1scnc1Cl", "MEASUREMENT UNITS": "%", "OBSERVED MEASUREMENT": 0.537}
{"MOLECULE": "Cc1cccnc1NC(=O)NCc1cccnc1OC(C)C", "MEASUREMENT UNITS": "%", "OBSERVED MEASUREMENT": -6.17}
{"MOLECULE": "Cc1nc(CN2CCC(CNC(=O)CCC3CCCC3)CC2)oc1C", "MEASUREMENT UNITS": "%", "OBSERVED MEASUREMENT": -2.1}
{"MOLECULE": "CCc1ccc(CN(Cc2ccccc2)CC(C)CO)nc1 (stereo not drawn)", "MEASUREMENT UNITS": "%", "OBSERVED MEASUREMENT": -6.55}
{"MOLECULE": "O=C(Cn1ccc2ccc(Br)cc21)NCc1ccc(C(=O)O)cc1", "MEASUREMENT UNITS": "%", "OBSERVED MEASUREMENT": -6.34}
{"MOLECULE": "CCCC(=O)Nc1cc(C(=O)NC(C)Cc2ccncc2)ccc1C (stereo not drawn)", "MEASUREMENT UNITS": "%", "OBSERVED MEASUREMENT": -5.95}
{"MOLECULE": "Cc1cc(C(=O)N2CCCC2c2noc(C)n2)[nH]n1 (stereo not drawn)", "MEASUREMENT UNITS": "%", "OBSERVED MEASUREMENT": 1.6}
{"MOLECULE": "CN1CCCc2cc(CNC(=O)c3cccnc3O)ccc21", "MEASUREMENT UNITS": "%", "OBSERVED MEASUREMENT": -1.9}
{"MOLECULE": "N#Cc1ccc(F)c(CSCCN2CCOCC2)c1", "MEASUREMENT UNITS": "%", "OBSERVED MEASUREMENT": -7.03}
{"MOLECULE": "CCS(=O)(=O)N1CC[C@H]2C(=O)N(Cc3cccnc3)CCO[C@H]2C1", "MEASUREMENT UNITS": "%", "OBSERVED MEASUREMENT": -13.9}
{"MOLECULE": "NC(=O)CCC1CCCN(c2ncnc3c2Cc2ccccc2OC3)C1 (stereo not drawn)", "MEASUREMENT UNITS": "%", "OBSERVED MEASUREMENT": -4.64}
{"MOLECULE": "Cn1cncc1CN1CCC2(CCCN2c2ncccn2)CC1", "MEASUREMENT UNITS": "%", "OBSERVED MEASUREMENT": -8.23}
{"MOLECULE": "Cc1ccc(CNC(=O)c2ccc(=O)n(C)n2)c(OC2CCCC2)c1", "MEASUREMENT UNITS": "%", "OBSERVED MEASUREMENT": -5.94}
{"MOLECULE": "CN(C)C(=O)[C@@H]1C[C@@H]2CCN(Cc3ccncc3)C[C@@H]2O1", "MEASUREMENT UNITS": "%", "OBSERVED MEASUREMENT": -11.6}
{"MOLECULE": "Cc1ccc(C(=O)NC(CN2CCCC2=O)c2ccccc2)cn1 (stereo not drawn)", "MEASUREMENT UNITS": "%", "OBSERVED MEASUREMENT": 2.77}
{"MOLECULE": "Cc1cc(OCC(=O)NC(C)c2ccc(N3CCOCC3)cc2)no1 (stereo not drawn)", "MEASUREMENT UNITS": "%", "OBSERVED MEASUREMENT": -3.83}
{"MOLECULE": "CCc1nc(CCNc2ncccn2)sc1C", "MEASUREMENT UNITS": "%", "OBSERVED MEASUREMENT": -7.68}
{"MOLECULE": "O=C(Nc1ccccc1-c1ccccc1)N1C[C@@H]2CNC[C@]2(C(=O)O)C1", "MEASUREMENT UNITS": "%", "OBSERVED MEASUREMENT": -2.53}
{"MOLECULE": "COCC1COCCC12CCN(C(=O)CC1=CCCCC1)CC2 (stereo not drawn)", "MEASUREMENT UNITS": "%", "OBSERVED MEASUREMENT": -2.79}
{"MOLECULE": "CC(C)CC(NC(=O)c1ccco1)c1nc2cccnc2n1C (stereo not drawn)", "MEASUREMENT UNITS": "%", "OBSERVED MEASUREMENT": -1.92}
{"MOLECULE": "CN1CCC(NC(=O)Nc2ccc(F)c(-n3cccc3)c2)C1=O (stereo not drawn)", "MEASUREMENT UNITS": "%", "OBSERVED MEASUREMENT": -12.5}
{"MOLECULE": "CCn1c(Nc2ccccc2OC)nc2c(C)nn(C)c2c1=O", "MEASUREMENT UNITS": "%", "OBSERVED MEASUREMENT": 14}
{"MOLECULE": "CC(Cn1cccn1)NC(=O)NCc1cccs1 (stereo not drawn)", "MEASUREMENT UNITS": "%", "OBSERVED MEASUREMENT": -16.6}
{"MOLECULE": "Cc1nc(C)c(C(=O)NCCNc2ncccc2C#N)s1", "MEASUREMENT UNITS": "%", "OBSERVED MEASUREMENT": -7.46}
{"MOLECULE": "CC(C)NC(=O)[C@@H]1C[C@H](N)CN1C(=O)c1cc2ccccc2[nH]c1=O", "MEASUREMENT UNITS": "%", "OBSERVED MEASUREMENT": -8.06}
{"MOLECULE": "O=C(C1CCCO1)N1CCC2(CC1)COCCN(Cc1cccnc1)C2 (stereo not drawn)", "MEASUREMENT UNITS": "%", "OBSERVED MEASUREMENT": -2.16}
{"MOLECULE": "CCOC(=O)C(CO)NC(=O)CCc1cccc(OC2CCCC2)c1 (stereo not drawn)", "MEASUREMENT UNITS": "%", "OBSERVED MEASUREMENT": -3.2}
{"MOLECULE": "Brc1cnc(NCCCOC2CCOCC2)nc1", "MEASUREMENT UNITS": "%", "OBSERVED MEASUREMENT": -6.88}

Data provenance: ChEMBL document CHEMBL3507680
